Each recorded value in this set is attributed to PubChem BioAssay AID652241.

biological target: Virion infectivity factor (Human immunodeficiency virus type 1 group M subtype B (isolate BH10)) + Virion infectivity factor (Human immunodeficiency virus type 1 group M subtype B (isolate BRU/LAI)) + Virion infectivity factor (Human immunodeficiency virus type 1 group M subtype B (isolate PCV12)) + Virion infectivity factor (Human immunodeficiency virus type 1 group M subtype B (isolate HXB2)) (UniProt P69720+P69721+P69722+P69723); test: dose-dependent disruption of HIV Vif self-association – imaging, HEK293T, cherry-picks, dose response (AID 652241); settings: HEK293T Vif multimerization imaging, 24 h; at 19.5 µM (top of the series);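 also: imaged cell signal that rises when Vif self-association is disrupted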
Results filed as inconclusive are left out. Active and inactive are the calls of the source.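 The calls were made as follows: active = fitted curve reaches activity 50 in the expected rising direction at or below the top valid tested dose; inconclusive = no clear call, values can overlap the other calls; inactive = activity in the wrong direction, and the rest.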
METRIC: activity, higher = inhibition

MOLECULE: CCOC(=O)C[C@@H](C#N)NC(=O)[C@@H]1CCCN1C(=O)[C@@H](NC(=O)c1ccc(N)c(Cl)c1)C(C)(C)C
REPORTED: inactive
//
MOLECULE: CCOC(=O)C1(Cc2ccccc2)CCN(Cc2csc(C(C)=O)c2)CC1
REPORTED: inactive
//
MOLECULE: CCOc1ccc(NC(=O)CN(C)C(=O)c2cc(S(=O)(=O)N3CCCCC3)ccc2Cl)cc1OCC
REPORTED: inactive
//
MOLECULE: CCn1c(SCc2nc3ccccc3c(=O)[nH]2)nc2ccccc2c1=O
REPORTED: inactive
//
MOLECULE: COc1c2ccoc2nc2c(OC)c(OC[C@@H](O)C(C)(C)O)ccc12
REPORTED: inactive
//
MOLECULE: CN(C)c1ccc(/C=C/C(=O)c2ccc3c(c2)OCO3)cc1
REPORTED: inactive
//
MOLECULE: CC(C(=O)O)c1ccc(N2Cc3ccccc3C2=O)cc1 (stereo not given)
REPORTED: inactive
//
MOLECULE: CC(C)c1ccc(NC(=O)N2CCCC2C(=O)Nc2ccc(-n3cnnn3)cc2)cc1 (stereo not given)
REPORTED: inactive
//
MOLECULE: CCC(C)n1c(-c2cccs2)nc2nc3ccccc3nc21 (stereo not given)
REPORTED: inactive
//
MOLECULE: COc1ccc(C(=O)Nc2cc(OC)c(NC(=O)Nc3ccccc3)cc2OC)cc1
REPORTED: inactive

----------
target: Virion infectivity factor (Human immunodeficiency virus type 1 group M subtype B (isolate BH10)) + Virion infectivity factor (Human immunodeficiency virus type 1 group M subtype B (isolate BRU/LAI)) + Virion infectivity factor (Human immunodeficiency virus type 1 group M subtype B (isolate PCV12)) + Virion infectivity factor (Human immunodeficiency virus type 1 group M subtype B (isolate HXB2)) (UniProt P69720+P69721+P69722+P69723); assay: dose-dependent disruption of HIV Vif self-association – imaging, HEK293T, cherry-picks, dose response (AID 652241); conditions: HEK293T Vif multimerization imaging, 24 h; at 19.5 µM (top of the series);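 also: imaged cell signal that rises when Vif self-association is disrupted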
Inconclusive results are not listed. Activity calls are given as the source filed them.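 Rule for the calls: active = fitted curve reaches activity 50 in the expected rising direction at or below the top valid tested dose; inconclusive = no clear call, values can overlap the other calls; inactive = activity in the wrong direction, and the rest.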

MOLECULE: O=C(Nc1cnccn1)Nc1ccccc1Cl
activity, higher = inhibition: inactive

MOLECULE: Cc1ccc(N(C)S(=O)(=O)c2ccc(-c3ccc(=O)[nH]n3)s2)cc1C
activity, higher = inhibition: inactive

MOLECULE: O=C(Cc1ccccc1)OCC(=O)c1ccc(F)cc1
activity, higher = inhibition: inactive

MOLECULE: CC1CN(S(=O)(=O)c2cccc(C(=O)N3CCC(C(N)=O)CC3)c2)CC(C)O1 (stereo unspecified)
activity, higher = inhibition: inactive

MOLECULE: COC(=O)c1ccc2c(=O)n(Cc3ccco3)c(SCC(=O)Nc3cc(C)on3)nc2c1
activity, higher = inhibition: inactive

MOLECULE: Cc1nc(SCC(=O)N2CCCC2=O)nc(C)c1C
activity, higher = inhibition: inactive

MOLECULE: CC(C)n1nc(C(=O)Nc2ccc(-n3cnnn3)cc2)c2ccccc2c1=O
activity, higher = inhibition: inactive

MOLECULE: Nc1nc(-c2ccc3ccccc3c2)cs1
activity, higher = inhibition: inactive

MOLECULE: COCCNCC(=O)Nc1nc(C)cs1
activity, higher = inhibition: inactive

MOLECULE: Cc1cc(OCC(C)C)ccc1/C(O)=C1/C(=O)C(=O)N(Cc2cccnc2)C1c1ccncc1 (stereo unspecified)
activity, higher = inhibition: inactive

MOLECULE: COc1ccc(CNC(=O)Nc2cccs2)cc1OC
activity, higher = inhibition: inactive

MOLECULE: COc1ccc(CNC(=O)COC(=O)c2cc(S(=O)(=O)N3CCOCC3)ccc2O)cc1OC
activity, higher = inhibition: inactive

MOLECULE: CCOC(=O)C1CCN(S(=O)(=O)c2cccc(-c3cn4cc(C)ccc4n3)c2)CC1
activity, higher = inhibition: inactive

MOLECULE: CC(Cc1ccc(O)cc1)NCC(O)c1cc(O)cc(O)c1 (stereo unspecified)
activity, higher = inhibition: inactive

MOLECULE: COc1cc(OC)cc(C(=O)NC(C(=O)Nc2ccc3c(c2)OCO3)C(C)C)c1 (stereo unspecified)
activity, higher = inhibition: inactive

MOLECULE: CNC(=O)COc1ccccc1C(=O)Nc1ccc2c(c1)oc1ccccc12
activity, higher = inhibition: inactive

MOLECULE: COc1ccccc1C(C)NC(=O)Cc1ccsc1 (stereo unspecified)
activity, higher = inhibition: inactive

MOLECULE: Cc1cc(-c2nnc(SCC(=O)c3ccc(Cl)cc3)o2)no1
activity, higher = inhibition: inactive

MOLECULE: CC(C)OCCCNc1ncnc2c1[nH]c1ccc(F)cc12
activity, higher = inhibition: inactive

MOLECULE: COc1cc(/C=C/C(=O)O)ccc1S(=O)(=O)N1CCCc2ccccc21
activity, higher = inhibition: inactive

MOLECULE: Cc1cc(S(=O)(=O)N2CCOCC2)ccc1OCC(=O)NCCN1CCOCC1
activity, higher = inhibition: inactive

MOLECULE: O=C(CCCn1c(=S)[nH]c2ccccc2c1=O)N1CCN(c2cccc(Cl)c2)CC1
activity, higher = inhibition: inactive

MOLECULE: COc1ccc2c(CC(=O)Nc3ccccc3OC)coc2c1
activity, higher = inhibition: inactive

MOLECULE: Cc1nn2c(COc3ccc(NC(=O)c4ccccc4Cl)cc3)nnc2c2ccccc12
activity, higher = inhibition: inactive

MOLECULE: CC(C)CC(NC(=O)C1CCCCC1)C(=O)N1CCC2(CC1)OCCO2 (stereo unspecified)
activity, higher = inhibition: inactive

MOLECULE: Cc1c(NC(=O)c2cc3ccccc3oc2=O)c(=O)n(-c2ccccc2)n1C
activity, higher = inhibition: inactive

MOLECULE: COc1cccc(CNc2ccc3c(c2)CCC3)c1
activity, higher = inhibition: inactive

MOLECULE: CCC(=O)N(CCC1(C(C)C)CCOC(C)(C)C1)Cc1ccco1 (stereo unspecified)
activity, higher = inhibition: inactive

MOLECULE: NS(=O)(=O)c1ccc(NC(=O)CCC(=O)N2CCOCC2)cc1
activity, higher = inhibition: inactive

MOLECULE: COc1ccc(CN(C(=O)Cn2nnc(-c3ccc(C)o3)n2)C(C(=O)NCC2CCCO2)c2ccco2)cc1 (stereo unspecified)
activity, higher = inhibition: inactive

MOLECULE: COCc1cc(C)nc(SCC(=O)Nc2cccc3cccnc23)c1C#N
activity, higher = inhibition: inactive

MOLECULE: S=C(NC1CC1)N1CCc2ccccc2C1
activity, higher = inhibition: inactive

MOLECULE: CCCOc1ccc(C(O)(CCC)CCN2CCCCC2)cc1 (stereo unspecified)
activity, higher = inhibition: inactive

MOLECULE: CCN1C(=O)NC(c2ccccc2)C1=O (stereo unspecified)
activity, higher = inhibition: inactive

MOLECULE: CCC(=O)Nc1ccc(-c2cc3ccccc3oc2=O)cc1
activity, higher = inhibition: inactive

MOLECULE: Cc1cc(/C=C2\C(=N)N3C(SCc4ccccc4)=NSC3=NC2=O)c(C)n1Cc1ccccc1
activity, higher = inhibition: inactive

MOLECULE: C=CCNc1sc(C(=O)c2ccc(Br)s2)c(N)c1C#N
activity, higher = inhibition: inactive

MOLECULE: O=C(NNC(=O)c1cc2ccccc2oc1=O)c1ccccc1
activity, higher = inhibition: inactive

MOLECULE: CN1CCc2nc3ccc(F)cc3c(C(N)=O)c2C1
activity, higher = inhibition: inactive

MOLECULE: CCOC(=O)C1(Cc2cccc(OC)c2)CCN(CCO)CC1
activity, higher = inhibition: inactive

MOLECULE: CC(C)C(NC(=O)c1ccccc1NC(=O)C(C)(C)C)C(=O)N1CCOCC1 (stereo unspecified)
activity, higher = inhibition: inactive

MOLECULE: CC1Cc2ccccc2N1C(=O)COC(=O)c1ccccc1NCCO (stereo unspecified)
activity, higher = inhibition: inactive

MOLECULE: Cc1ccc(C(C)C)c(OCC#CCN2CCOCC2)c1
activity, higher = inhibition: inactive

MOLECULE: Cc1cc(N2CCN(S(=O)(=O)c3ccc(Cl)c(Cl)c3)CC2)c2ccccc2n1
activity, higher = inhibition: inactive

MOLECULE: COc1ccc(-c2csc(-c3cccnc3)n2)cc1C
activity, higher = inhibition: inactive

MOLECULE: O=C(O)/C=C/C(=O)Nc1cccc(C(F)(F)F)c1
activity, higher = inhibition: inactive
